Origin of values: the supplement of paper PMC10567573

B1: BTBD10 (parent)
chain: DRKLHSRPRKLYKHSSTSSRIAKG

# Variants of: B1
# protocol-details: protein stability index of a GFP-peptide fusion (GPS, HEK-293T) (PSI 1-6); higher = more stable;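 also: lentivirally expressed fusions sorted by FACS into six bins by GFP to DsRed ratio, PSI derived from sequencing read proportions per bin multiplied by bin number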
# assay-conditions: c terminus: a fixed tail appended
readout-label: protein stability index
No unit in the answer, only the number.

These recorded examples may help you get a feel for the data.
{"sequence-record": "DRKLHSRSRKLYKHSSTSSRIAKG [P8S]", "protein stability index": 3.5}
{"sequence-record": "DRKLHSRIRKLYKHSSTSSRIAKG [P8I]", "protein stability index": 3.65}
{"sequence-record": "DRKLHSRPRKLYKHSSTSSRIAYG [K23Y]", "protein stability index": 2.98}
{"sequence-record": "DRKLHSRPRKLYKHSSTSSRIAKK [G24K]", "protein stability index": 4.14}
{"sequence-record": "DRKQHSRPRKLYKHSSTSSRIAKG [L4Q]", "protein stability index": 4.08}

Ask: Data request, read-out protein stability index, for DRKLHSRPRKLYKHSKTSSRIAKG [S16K]
Result: 2.94

Ask: Data request, read-out protein stability index, for DRKRHSRPRKLYKHSSTSSRIAKG [L4R]
Result: 3.9

Ask: Data request, read-out protein stability index, for DRKLHSRPRKRYKHSSTSSRIAKG [L11R]
Result: 4.42

Ask: Data request, read-out protein stability index, for DRKLHSRPRKLYKHSSTSMRIAKG [S19M]
Result: 3.07
